MEASUREMENT TARGET: Voltage-gated inwardly rectifying potassium channel KCNH2 (Homo sapiens, UniProt Q12809)
Sequence (Q12809 whole entry): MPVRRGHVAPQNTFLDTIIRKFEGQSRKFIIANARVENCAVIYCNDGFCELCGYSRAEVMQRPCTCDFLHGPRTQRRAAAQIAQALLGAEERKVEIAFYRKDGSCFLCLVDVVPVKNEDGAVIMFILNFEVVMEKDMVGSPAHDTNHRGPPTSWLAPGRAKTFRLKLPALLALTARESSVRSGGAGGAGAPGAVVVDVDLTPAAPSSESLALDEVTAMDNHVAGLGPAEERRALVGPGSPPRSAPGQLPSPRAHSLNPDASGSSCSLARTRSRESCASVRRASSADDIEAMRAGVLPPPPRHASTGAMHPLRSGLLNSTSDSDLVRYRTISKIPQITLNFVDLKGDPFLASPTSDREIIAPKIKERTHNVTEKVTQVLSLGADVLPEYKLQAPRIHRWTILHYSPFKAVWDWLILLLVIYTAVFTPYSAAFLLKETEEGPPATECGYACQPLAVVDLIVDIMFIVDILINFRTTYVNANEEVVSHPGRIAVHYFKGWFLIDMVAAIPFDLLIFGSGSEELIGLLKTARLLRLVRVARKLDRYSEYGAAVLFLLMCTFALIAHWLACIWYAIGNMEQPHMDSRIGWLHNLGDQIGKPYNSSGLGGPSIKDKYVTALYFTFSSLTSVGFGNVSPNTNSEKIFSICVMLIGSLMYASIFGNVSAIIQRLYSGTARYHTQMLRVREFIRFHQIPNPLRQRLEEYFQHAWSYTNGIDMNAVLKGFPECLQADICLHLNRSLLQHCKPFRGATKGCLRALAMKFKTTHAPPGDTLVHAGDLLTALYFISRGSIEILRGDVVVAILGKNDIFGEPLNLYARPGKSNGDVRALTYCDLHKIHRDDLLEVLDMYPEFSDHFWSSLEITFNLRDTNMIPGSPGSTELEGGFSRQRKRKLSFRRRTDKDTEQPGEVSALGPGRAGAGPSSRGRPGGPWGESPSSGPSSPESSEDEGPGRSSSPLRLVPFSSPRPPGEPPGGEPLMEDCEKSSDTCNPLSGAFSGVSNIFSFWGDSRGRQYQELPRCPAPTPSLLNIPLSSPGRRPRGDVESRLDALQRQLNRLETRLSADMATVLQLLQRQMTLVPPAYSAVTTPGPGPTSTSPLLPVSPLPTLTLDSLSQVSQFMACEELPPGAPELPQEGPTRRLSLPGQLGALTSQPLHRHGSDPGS
EXPERIMENTAL DETAILS: Inhibition of human ERG by patch clamp assay
PARAMETER: IC50 (µM)
// units = µM; emit number, no label

Input COc1ccc(COc2cnn(CC(=O)c3ccc(CN(C)C)cc3C)c(=O)c2)nc1 . Output IC50: 16

----------
EXPERIMENTAL DETAILS: Metabolic stability in rat hepatocytes relative to hepatic blood flow
Format: ADME, cell-based, Hepatocyte
CONDITION PARAMETERS: read-out: Stability
PARAMETER: hepatic extraction ratio
Provide a numeric answer; units are not to be included.

Input COc1ccc(COc2cnn(CC(=O)c3ccc(CN(C)C)cc3C)c(=O)c2)nc1 . Output hepatic extraction ratio: 0.78

----------
EXPERIMENTAL DETAILS: Plasma protein binding in rat
Format: ADME, cell-free
CONDITION PARAMETERS: read-out: PPB (converted)
PARAMETER: fraction unbound

Input COc1ccc(COc2cnn(CC(=O)c3ccc(CN(C)C)cc3C)c(=O)c2)nc1 . Output fraction unbound: 0.1

----------
EXPERIMENTAL DETAILS: Total mean residence time in iv dosed dog
Assay type: ADME, organism-based, Canis lupus familiaris
CONDITION PARAMETERS: in vivo
PARAMETER: MRT (h)
// units = h; emit number, no label

Input COc1ccc(COc2cnn(CC(=O)c3ccc(CN(C)C)cc3C)c(=O)c2)nc1 . Output MRT: 2.9

----------
EXPERIMENTAL DETAILS: Volume of distribution at steady state in cynomolgus monkey
Type: ADME, organism-based, Macaca fascicularis
CONDITION PARAMETERS: in vivo, read-out: Vdss
PARAMETER: Vd (L/kg)
// units = L/kg; emit number, no label

Input COc1ccc(COc2cnn(CC(=O)c3ccc(CN(C)C)cc3C)c(=O)c2)nc1 . Output Vd: 1.3

----------
EXPERIMENTAL DETAILS: Binding affinity to dog MCH-R1
Design: species or system Canis lupus familiaris
PARAMETER: IC50 (nM)
// units = nM; emit number, no label

Input COc1ccc(COc2cnn(CC(=O)c3ccc(CN(C)C)cc3C)c(=O)c2)nc1 . Output IC50: 23

----------
EXPERIMENTAL DETAILS: Volume of distribution at steady state in dog
Type: ADME, organism-based, Canis lupus familiaris
CONDITION PARAMETERS: in vivo, read-out: Vdss
PARAMETER: Vd (L/kg)
// units = L/kg; emit number, no label

Input COc1ccc(COc2cnn(CC(=O)c3ccc(CN(C)C)cc3C)c(=O)c2)nc1 . Output Vd: 2.9

----------
EXPERIMENTAL DETAILS: Lipophilicity, log P of the compound by HPLC analysis
Assay type: physicochemical
PARAMETER: logP
Provide a numeric answer; units are not to be included.

Observe how each entry below is paired with its result.
structure_notation=Cc1cc(CN(C)C)ccc1C(=O)Cn1ncc(OCc2ccc(Cl)cn2)cc1=O parameter=logP val=3.1
structure_notation=CN(C)Cc1ccc(C(=O)Cn2ncc(OCc3ccccc3)cc2=O)cc1 parameter=logP val=3.6
structure_notation=Cc1cc(CN(C)C)ccc1C(=O)Cn1ncc(OCc2ccc(Br)cn2)cc1=O parameter=logP val=3.4
structure_notation=CN(C)Cc1ccc(CCn2ccc(OCc3ccccc3)cc2=O)cc1 parameter=logP val=3.2
structure_notation=Cc1cc(CN(C)C)ccc1C(=O)Cn1ccc(OCc2ccc(Br)cn2)cc1=O parameter=logP val=2.8

Input CN(C)Cc1ccc(C(=O)Cn2ccc(OCc3ccccc3)cc2=O)cc1 . Output logP: 3

Input CN(C)Cc1ccc(C(=O)Cn2ncc(OCc3ccc(Cl)cn3)cc2=O)cc1 . Output logP: 2.9

Input CN(C)Cc1ccc(C(=O)Cn2ccc(OCc3ccc(Cl)cn3)cc2=O)cc1 . Output logP: 2.3

Input Cc1cc(CN(C)C)ccc1C(=O)Cn1ccc(OCc2ccc(Cl)cn2)cc1=O . Output logP: 2.7

Input Cc1cc(CN(C)C)ccc1C(=O)Cn1ccc(OCc2ccccc2)cc1=O . Output logP: 3.3

Input COc1ccc(COc2cnn(CC(=O)c3ccc(CN(C)C)cc3C)c(=O)c2)nc1 . Output logP: 2.3

Input Cc1cc(CN(C)C)ccc1C(=O)Cn1ncc(OCc2ccccc2)cc1=O . Output logP: 3.8

Input CN(C)Cc1ccc(C(=O)Cn2ncc(OCc3ccc(Br)cn3)cc2=O)cc1 . Output logP: 3.1

Input CN(C)Cc1ccc(C(=O)Cn2ccc(OCc3ccc(Br)cn3)cc2=O)cc1 . Output logP: 2.5
